# subject_of_test: human 5-HT1A receptor (Homo sapiens (Human), UniProt P08908)
# Sequence (P08908 whole entry): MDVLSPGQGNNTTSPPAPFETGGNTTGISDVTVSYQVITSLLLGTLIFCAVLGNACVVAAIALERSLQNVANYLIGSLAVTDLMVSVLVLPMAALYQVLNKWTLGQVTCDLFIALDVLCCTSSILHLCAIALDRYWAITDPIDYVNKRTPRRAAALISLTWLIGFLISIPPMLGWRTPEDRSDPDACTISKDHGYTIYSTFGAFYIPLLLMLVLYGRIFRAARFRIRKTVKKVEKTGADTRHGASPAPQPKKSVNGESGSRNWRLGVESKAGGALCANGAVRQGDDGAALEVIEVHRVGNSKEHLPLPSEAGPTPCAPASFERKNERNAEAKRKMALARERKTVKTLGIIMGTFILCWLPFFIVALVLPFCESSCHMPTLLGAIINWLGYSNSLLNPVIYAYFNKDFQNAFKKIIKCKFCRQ
# assay_summary: Test 2: agonist activity for human 5-HT1A receptor ([35S]GTPγS binding)
# Format: biochemical
# experimental_parameters: agonist activity in the presence of 10 μM of compound, relative to 100 μmol/L 5-HT
Please enter criterion met where Emax at 10 µM is greater than or equal to 50%, and criterion not met where it is lower.

Could you verify whether the entry Cn1cnc2c1C(=O)N(CCN1CCC(c3noc4ccccc34)CC1)CCC2 [Example 134] shows Emax at 10 µM of no less than 50%?
criterion not met

Does the compound Cc1nc2c(o1)CCCN(CCN1CCC(c3noc4ccccc34)CC1)C2=O [Example 157] have recorded Emax at 10 µM that is 50% or more?
criterion not met

Decide: is the reported value of Emax at 10 µM for Cc1c2c(nn1C)CCN(CCN1CCN(c3nsc4ccccc34)CC1)C2=O [Example 65] equal to or greater than 50%?
criterion met

Tell me whether Emax at 10 µM is at least 50% here: Cn1cnc2c1CCN(CCN1CCC(c3noc4ccccc34)CC1)C2=O [Example 16]
criterion not met

Check the entry CC(C)c1nc2c(o1)C(=O)N(CCN1CCC(c3noc4ccccc34)CC1)CC2 [Example 164] : does Emax at 10 µM equal or exceed 50%?
criterion not met

* * *

Provide the recorded log10 of Ki for the entries that follow.
# subject_of_test: human D2 receptor (Homo sapiens (Human), UniProt P14416)
# Sequence (P14416 whole entry): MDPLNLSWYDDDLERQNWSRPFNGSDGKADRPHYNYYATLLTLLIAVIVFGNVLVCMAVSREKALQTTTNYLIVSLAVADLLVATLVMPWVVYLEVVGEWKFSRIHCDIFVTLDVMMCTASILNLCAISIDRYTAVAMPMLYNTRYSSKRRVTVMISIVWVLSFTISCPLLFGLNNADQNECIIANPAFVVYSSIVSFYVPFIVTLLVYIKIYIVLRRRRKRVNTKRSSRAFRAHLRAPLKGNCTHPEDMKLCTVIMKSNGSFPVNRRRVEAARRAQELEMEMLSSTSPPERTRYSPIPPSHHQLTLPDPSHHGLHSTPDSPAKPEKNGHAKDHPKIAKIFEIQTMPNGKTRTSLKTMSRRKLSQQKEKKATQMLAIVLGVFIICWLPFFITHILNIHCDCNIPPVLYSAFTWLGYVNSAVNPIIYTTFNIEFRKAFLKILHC
# assay_summary: Test 1: binding activity for human D2 receptor ([3H]Spiperone, CHO cell membrane fraction)
# experimental_parameters: human D2 receptor, [3H]Spiperone
Please keep in mind that the values are log10 of Ki expressed in nM.

Query (molecule): O=C1c2cccnc2CCN1CCN1CCC(c2noc3ccccc23)CC1 ; field requested: log10 of Ki
2.80

Dear colleague, I am looking for the recorded log10 of Ki of the following molecule: Cc1ncc2c(n1)CCN(CCN1CCC(c3noc4ccccc34)CC1)C2=O
2.96

Entry under review: O=C1c2ncoc2CCN1CCN1CCC(c2noc3ccccc23)CC1 . Reported log10 of Ki?
3.39

What value of measured log10 of Ki is listed for O=c1c2cnccc2ccn1CCN1CCN(c2nsc3ccccc23)CC1 ?
2.50

Report log10 of Ki for CC(C)n1ncc2c1CCN(CCN1CCC(c3noc4ccccc34)CC1)C2=O please.
2.57

Find the recorded log10 of Ki belonging to Cn1ncc2c1CCN(CCN1CCN(c3nsc4ccccc34)CC1)C2=O and report it.
2.90

What value of log10 of Ki has been reported for the following molecule? Cn1cnc2c1C(=O)N(CCN1CCC(c3noc4ccccc34)CC1)CCC2
2.49

log10 of Ki for Cn1ncc2c1CCC(CCN1CCN(c3nsc4ccccc34)CC1)C2=O (stereo not drawn) ?
2.16

Dear colleague, I am looking for the recorded log10 of Ki of the following molecule: Cn1ncc2c1C(=O)N(CCN1CCN(c3nsc4ccccc34)CC1)CC2
2.10

* * *

# subject_of_test: hERG channel (Homo sapiens (Human))
# Sequence (Q12809 whole entry): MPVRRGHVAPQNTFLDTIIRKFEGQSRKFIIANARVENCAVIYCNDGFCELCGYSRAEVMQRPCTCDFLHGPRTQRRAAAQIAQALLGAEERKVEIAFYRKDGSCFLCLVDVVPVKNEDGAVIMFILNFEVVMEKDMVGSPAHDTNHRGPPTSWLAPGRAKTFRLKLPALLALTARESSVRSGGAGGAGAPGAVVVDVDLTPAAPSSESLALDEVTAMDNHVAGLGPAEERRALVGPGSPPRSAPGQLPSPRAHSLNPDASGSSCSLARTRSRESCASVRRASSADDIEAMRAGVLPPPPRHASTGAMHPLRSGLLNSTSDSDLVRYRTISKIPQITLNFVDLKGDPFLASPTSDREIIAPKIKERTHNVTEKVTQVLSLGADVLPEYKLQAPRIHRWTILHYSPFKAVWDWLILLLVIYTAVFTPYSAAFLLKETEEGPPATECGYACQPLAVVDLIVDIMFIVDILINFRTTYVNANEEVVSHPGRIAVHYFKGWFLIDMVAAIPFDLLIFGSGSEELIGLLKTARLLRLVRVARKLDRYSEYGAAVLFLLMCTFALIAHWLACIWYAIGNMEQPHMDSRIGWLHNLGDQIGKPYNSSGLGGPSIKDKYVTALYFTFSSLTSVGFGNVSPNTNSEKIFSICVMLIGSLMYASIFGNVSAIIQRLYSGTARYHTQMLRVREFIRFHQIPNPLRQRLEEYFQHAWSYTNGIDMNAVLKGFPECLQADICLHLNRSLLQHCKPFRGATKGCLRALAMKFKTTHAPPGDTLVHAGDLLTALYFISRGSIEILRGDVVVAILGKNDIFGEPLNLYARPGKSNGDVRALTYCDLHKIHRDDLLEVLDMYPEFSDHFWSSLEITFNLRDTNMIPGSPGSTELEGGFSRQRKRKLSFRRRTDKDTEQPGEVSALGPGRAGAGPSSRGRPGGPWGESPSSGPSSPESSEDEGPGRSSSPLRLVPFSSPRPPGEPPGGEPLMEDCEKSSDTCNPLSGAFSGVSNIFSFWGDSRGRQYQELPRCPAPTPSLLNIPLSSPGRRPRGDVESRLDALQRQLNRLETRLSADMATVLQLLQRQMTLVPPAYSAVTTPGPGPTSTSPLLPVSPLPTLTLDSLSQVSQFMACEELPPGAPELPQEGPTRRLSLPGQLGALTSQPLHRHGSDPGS
# assay_summary: Test 6-1: inhibitory activity for hERG channel (auto patch clamp, Qpatch)
# Type: cell-based
# experimental_parameters: whole cell auto patch clamp, hERG-CHO cells; read-out: hERG inhibition IC50
# Procedure: Test 6-1: Evaluation of Inhibitory Activity for hERG Channel Inhibitory activity of the present compound for hERG channel was measured by whole cell patch clamp method with an auto patch clamp system using CHO cells in which hERG channel involved in human rapidly activating delayed rectifier potassium current (IKr) was forcibly expressed. […]
Assign pIC50 to each entry below.
FYI, pIC50 means -log10 of a concentration in mol per litre.

# returns recorded pIC50 (system: hERG channel (Homo sapiens (Human))) for Cc1cc2c(n1C)CCCN(CCN1CCC(c3noc4ccccc34)CC1)C2=O [Example 166]
6.00

So what pIC50 did COc1cc2c(cn1)C(=O)N(CCN1CCN(c3nsc4ccccc34)CC1)CC2 [Example 2] get with hERG channel (Homo sapiens (Human))?
5.60

Notebook: pull reported pIC50 for hERG channel (Homo sapiens (Human)), entry O=C1c2cnccc2CCN1CCN1CCN(c2nsc3ccccc23)CC1 [Example 18]
5.23

Any idea what pIC50 came out for Cc1nc2c(o1)CCCN(CCN1CCN(c3nsc4ccccc34)CC1)C2=O [Example 52] on hERG channel (Homo sapiens (Human))?
5.31

What pIC50 appears in the records for this compound with hERG channel (Homo sapiens (Human))? Cc1noc2ccn(CCN3CCN(c4nsc5ccccc45)CC3)c(=O)c12 [Example 53]
5.24

State its pIC50 on hERG channel (Homo sapiens (Human)): Cn1ncc2c1C(=O)N(CCN1CCC(c3noc4ccccc34)CC1)CCC2 [Example 155]
6.15

Query for hERG channel (Homo sapiens (Human)): what pIC50 does the record show for Cn1cc2c(n1)CCCN(CCN1CCC(c3noc4ccccc34)CC1)C2=O [Example 41] ?
6.30

Could you share what pIC50 was measured for Cn1ncc2c1CCCN(CCN1CCN(c3noc4ccccc34)CC1)C2=O [Example 80] , tested on hERG channel (Homo sapiens (Human))?
4.81

* * *

# subject_of_test: human 5-HT2A receptor (Homo sapiens (Human))
# Sequence (P28223 whole entry): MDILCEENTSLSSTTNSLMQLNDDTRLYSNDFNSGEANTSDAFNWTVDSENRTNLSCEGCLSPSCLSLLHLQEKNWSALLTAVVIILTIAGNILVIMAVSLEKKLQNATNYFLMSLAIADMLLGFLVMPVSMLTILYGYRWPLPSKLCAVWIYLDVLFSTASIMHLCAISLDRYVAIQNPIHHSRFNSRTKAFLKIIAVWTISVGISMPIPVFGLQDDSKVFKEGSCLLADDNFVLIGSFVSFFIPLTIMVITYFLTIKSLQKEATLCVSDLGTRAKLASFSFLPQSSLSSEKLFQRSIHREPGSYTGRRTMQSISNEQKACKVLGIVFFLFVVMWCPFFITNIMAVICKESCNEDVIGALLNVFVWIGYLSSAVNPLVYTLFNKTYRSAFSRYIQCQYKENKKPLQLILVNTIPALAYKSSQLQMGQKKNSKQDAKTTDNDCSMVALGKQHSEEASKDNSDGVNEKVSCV
pKi: −log10 of the molar value.
pKi of 8 or higher: T. Under 8: F.

Decide: pKi of O=c1c2cnccc2ccn1CCN1CCN(c2noc3ccccc23)CC1 >= 8?
F

I'd appreciate it if you could say whether O=c1c2cncnc2ccn1CCN1CCC(c2noc3ccccc23)CC1 has pKi at least equal to 8.
F

Would you say Cc1nc2c(o1)C(=O)N(CCN1CCN(c3nsc4ccccc34)CC1)CC2 shows pKi at minimum 8?
T

Identify whether the reported pKi of the following compound is 8 or greater: Cc1nc2c(o1)C(=O)N(CCN1CCN(c3nsc4ccccc34)CC1)CCC2
T

Assess whether reported pKi for O=C1c2ncccc2CCN1CCN1CCC(c2noc3cc(F)ccc23)CC1 [Example 4] sits at 8 or higher.
T

Please indicate if the recorded pKi for O=C1c2ncccc2CCN1CCN1CCC(c2noc3cc(F)c(F)cc23)CC1 meets or exceeds 8.
F

Is reported pKi greater than or equal to 8 here: COc1ccc2c(C3CCN(CCN4CCc5cccnc5C4=O)CC3)noc2c1
F

Does the reported pKi for Cc1cccc2c(C3CCN(CCN4CCc5cccnc5C4=O)CC3)noc12 fall at or above the 8 mark?
F

* * *

property_label: pKi
On this scale, pKi is minus log10 of a concentration expressed in M (mol/L).

What reported pKi corresponds to Cn1ncc2c1CCCN(CCN1CCN(c3nsc4ccccc34)CC1)C2=O [Example 44] on human 5-HT1A receptor (Homo sapiens (Human), UniProt P08908)?
9.66

Recall the recorded pKi for O=C1c2ncccc2CCC1CCN1CCC(c2noc3ccccc23)CC1 (stereo not shown) [Example 24] with human 5-HT1A receptor (Homo sapiens (Human), UniProt P08908) and state it.
7.88

Lab note: need pKi with human 5-HT1A receptor (Homo sapiens (Human), UniProt P08908) for entry Cn1ccc2c1CCN(CCN1CCC(c3noc4ccccc34)CC1)C2=O [Example 60] , please look it up.
7.86

// lookup pKi | system=human 5-HT1A receptor (Homo sapiens (Human), UniProt P08908) | key= O=c1c2cncnc2ccn1CCN1CCC(c2noc3ccccc23)CC1 [Example 129]
7.29

// lookup pKi | system=human 5-HT1A receptor (Homo sapiens (Human), UniProt P08908) | key= CC(C)n1ncc2c1CCN(CCN1CCN(c3nsc4ccccc34)CC1)C2=O [Example 158]
6.66

Hi! What's the reported pKi for O=C1c2occc2CCN1CCN1CCC(c2noc3ccccc23)CC1 [Example 127] on human 5-HT1A receptor (Homo sapiens (Human), UniProt P08908)?
7.45

For the record Cc1nc2c(o1)CCCN(CCN1CCC(c3noc4ccccc34)CC1)C2=O [Example 157] , what value of pKi is listed for human 5-HT1A receptor (Homo sapiens (Human), UniProt P08908)?
8.67

Look up pKi with human 5-HT1A receptor (Homo sapiens (Human), UniProt P08908) for this molecule: O=C1c2ncccc2CCN1CCN1CCC(c2noc3c(F)cccc23)CC1 [Example 140]
6.77

Look up pKi with human 5-HT1A receptor (Homo sapiens (Human), UniProt P08908) for this molecule: O=C1c2ncccc2CCN1CCN1CCN(c2noc3ccccc23)CC1 [Example 1]
7.67

Please provide the recorded pKi for O=C1c2ncoc2CCN1CCN1CCC(c2noc3ccccc23)CC1 [Example 190] , tested on human 5-HT1A receptor (Homo sapiens (Human), UniProt P08908).
7.30

What pKi appears in the records for this molecule with human 5-HT1A receptor (Homo sapiens (Human), UniProt P08908)? O=C1c2c(Br)nn(Br)c2CCN1CCN1CCN(c2nsc3ccccc23)CC1 [Example 69]
7.98

Observed pKi on human 5-HT1A receptor (Homo sapiens (Human), UniProt P08908) for COc1cc2c(cn1)C(=O)N(CCN1CCN(c3noc4ccccc34)CC1)CC2 [Example 20] , please.
9.11

For human 5-HT1A receptor (Homo sapiens (Human), UniProt P08908), provide pKi of Cc1nc2c(o1)CCN(CCN1CCC(c3noc4ccccc34)CC1)C2=O [Example 39] please.
9.08

Give recorded pKi with human 5-HT1A receptor (Homo sapiens (Human), UniProt P08908) for the following molecule: CC(C)c1nc2c(o1)C(=O)N(CCN1CCN(c3nsc4ccccc34)CC1)CC2 [Example 66]
8.06

// map O=C1c2nc(Cl)ccc2CCN1CCN1CCC(c2noc3ccccc23)CC1 [Example 146] to recorded pKi (system: human 5-HT1A receptor (Homo sapiens (Human), UniProt P08908))
8.52

Return pKi measured with human 5-HT1A receptor (Homo sapiens (Human), UniProt P08908) given this molecule: Cc1ncc2c(n1)CCC(CCN1CCC(c3noc4ccccc34)CC1)C2=O (stereo not shown) [Example 150]
8.27

Value wanted: pKi (human 5-HT1A receptor (Homo sapiens (Human), UniProt P08908)) of entry Cc1cncc2c1CCN(CCN1CCC(c3noc4ccccc34)CC1)C2=O [Example 138]
7.56

Entry Cc1noc2c1C(=O)N(CCN1CCC(c3noc4ccccc34)CC1)CCC2 [Example 38] , system human 5-HT1A receptor (Homo sapiens (Human), UniProt P08908): what pKi was measured?
7.87

GET /values?readout=pKi&system=human 5-HT1A receptor (Homo sapiens (Human), UniProt P08908)&item= Cc1cc2c(n1C)CCCN(CCN1CCC(c3noc4ccccc34)CC1)C2=O [Example 166]
9.77

Report pKi for CC1(CCN2CCN(c3noc4ccccc34)CC2)CCc2cccnc2C1=O (stereo not shown) [Example 145] tested on human 5-HT1A receptor (Homo sapiens (Human), UniProt P08908).
7.42

Lab note: need pKi with human 5-HT1A receptor (Homo sapiens (Human), UniProt P08908) for entry O=c1c2cnc(C(F)(F)F)cc2ccn1CCN1CCN(c2noc3ccccc23)CC1 [Example 173] , please look it up.
7.41

Find the measured pKi: item Cc1cc2c(cn1)C(=O)N(CCN1CCN(c3noc4ccccc34)CC1)CC21CC1 [Example 21] , target or system human 5-HT1A receptor (Homo sapiens (Human), UniProt P08908).
8.06

Hi! What's the reported pKi for O=C1c2ncccc2CCN1CCN1CCC(c2noc3cc(F)c(F)cc23)CC1 [Example 148] on human 5-HT1A receptor (Homo sapiens (Human), UniProt P08908)?
6.81

API: value(readout=pKi, system=human 5-HT1A receptor (Homo sapiens (Human), UniProt P08908)) for record O=C1c2ncccc2CCN1CCN1CCN(c2noc3cc(F)ccc23)CC1 [Example 123]
6.79

Form entry - test system: human 5-HT1A receptor (Homo sapiens (Human), UniProt P08908); read-out: pKi; molecule: O=c1c2ncccc2ccn1CCN1CCC(c2noc3cc(F)ccc23)CC1 [Example 12]
8.15
